The origin of these recorded values is PubChem BioAssay (NCI).

System: HCC-2998 colon
Assay: NCI-60 one-dose screen, 48 h (100 = growth as untreated, 0 = no growth, -100 = all killed)
Conditions: 10 µM unless noted
Compounds without any hit were thinned out: in the full panel of roughly 83,000, 20% have a hit.
Readout Kind: growth (%)

COc1ccc2c(c1)C/C(=C\c1cc(-c3cc(OC)c(OC)c(OC)c3)n[nH]1)C2=O; 102
C/C(=N/NC(N)=S)C(=O)O; 94.3
O=C1C(=O)c2ccccc2C(O)=C1CCCc1ccc(C2CCCCC2)cc1; 29.5
Cc1ccc(S(=O)(=O)Nc2ccc(-c3cc(-c4cccc(F)c4)c(C#N)c(N)n3)cc2)cc1; 39.7
Cn1cc(-c2nc(-c3c[nH]c4ncccc34)cs2)c2ccccc21; 32.6
CC1(C)C(=O)/C(=C\c2cccnc2)C[C@]2(C)[C@H]3CC[C@@H]4[C@@H](C(=O)/C=C/c5ccncc5)CC[C@@]4(C)[C@]3(C)CC[C@@H]12; 59.7
NNC(=O)c1nc2ccccc2[nH]1; 104
Fc1cccc(-c2[nH]nc3nc(Nc4cccnc4)sc23)c1; 70.2
N#Cc1cnc2cc(OC[C@@H](O)CO)c(NC(=O)C3CCCC3)cc2c1Nc1ccc(OCc2cccc(F)c2)c(Cl)c1; -65.2
COc1cc2c3c(c4c5ccccc5[nH]c4c2c(OC)c1OC)C(=O)N(O)C3=O; 55.3

====

Test system: KM12 colon
Assay: NCI-60 one-dose screen, 48 h (100 = growth as untreated, 0 = no growth, -100 = all killed)
Details: 10 µM unless noted
The panel holds about 83,000 compounds, 20% with a hit somewhere; the sample as a whole holds those more often.
Readout Kind: growth (%)

CC1(C)CC[C@]2(C(=O)Nc3ccccn3)CC[C@]3(C)C(=CC[C@@H]4[C@@]5(C)C/C(=C/c6ccncc6)C(=O)C(C)(C)[C@@H]5CC[C@]43C)[C@@H]2C1; -6.73
N#Cc1cnc2cc(OC[C@@H](O)CO)c(NC(=O)CC3CSSC3)cc2c1Nc1ccc(OCc2cccc(F)c2)c(Cl)c1; -79.6
CC1(C)NCCC[C@]2(C)[C@H]3CC[C@@H]4[C@H]5[C@H](C(=O)/C=C/c6ccccn6)CC[C@]5(CO)CC[C@@]4(C)[C@]3(C)CC[C@@H]12; 25.5
COc1ccc(O)c(-c2cc(-c3ccc(Cl)cc3)c(C#N)c(=O)[nH]2)c1; 57.6

====

Test system: SK-MEL-5 melanoma
Test: NCI-60 one-dose screen, 48 h
Conditions: 10 µM unless noted
The panel holds about 83,000 compounds, 20% with a hit somewhere; the sample as a whole holds those more often. Calls of active or inactive are those of the source. How the source made its calls: active means growth percent below 10; inactive means the rest.
Outcomes: active, inactive

Cn1cnc2c1c(=O)n(CCC(=O)Nc1ccc(F)cc1)c(=O)n2C; inactive
COc1ccc2c(c1)c(-c1nc(-c3c[nH]c4ncccc34)cs1)cn2CCNC(=O)OC(C)(C)C; inactive
CC(=O)O[C@H]1CC[C@]2(C)[C@H]3CC=C4[C@@H]5[C@H](C)[C@@H](C)CC[C@]5(C(=O)NCCNCCNCCN)CC[C@@]4(C)[C@]3(C)CC[C@H]2C1(C)C; inactive
CCN(CC)CCCCCNc1cc(OC(=O)c2ccccc2)cc2cccnc12; inactive
C=C1CC[C@@H](C(=O)OC)Cc2nc(C)ccc21; inactive
O=Cc1nc2ccccc2[nH]1; inactive
Cc1ccccc1-c1nc(C(Cl)Cl)nc2cc(-c3ccccc3)nn12; inactive
Nc1c2c(nc3ccc(Cl)cc13)CC(c1ccc(O)cc1)CC2=O (centres undefined); inactive
CCCCC[C@H]1CC=C2C(=O)C=C[C@@H]2CC=CCCCC(=O)O[C@@H](CCCCC)CC=C2C(=O)C=C[C@@H]2CC=CCCCC(=O)O[C@@H](CCCCC)CC=C2C(=O)C=C[C@@H]2CC=CCCCC(=O)O1; active
c1cnc2[nH]cc(-c3csc(-c4cn(CCCN5CCCCC5)c5ccccc45)n3)c2c1; active
O=C(NCN1C(=O)c2cccc3cccc(c23)C1=O)N1CCC(Cc2ccccc2)CC1; inactive
O=C1C(=O)c2ccccc2C(O)=C1CCCc1ccc(C2CCCCC2)cc1; inactive
O=C(N/N=C\c1ccccc1O)C1CC1; inactive
CCCC1CCCCN1C(=O)OCC(C)C (centres undefined); inactive
CC(=O)NC1=C(C#N)C(c2ccccc2Cl)c2c(ccc3ccccc23)O1 (centres undefined); inactive
C=C(C)[C@@H]1CC[C@]2(C)[C@H](CC=C3[C@@H]4CC(C)(C)CC[C@]4(C=O)CC[C@]32C)[C@@]1(C)CCCN; inactive
O=S(=O)(NCCCNc1cc(-c2cn(-c3ccccc3)nc2-c2cccc(O)c2)ccn1)c1ccc(F)cc1; inactive
COc1cc(-c2cc3ncccc3c3nc(OCCN(C)C)c4cccnc4c23)cc(OC)c1OC; active
CC(C)(C)c1[nH]nc2c1C(c1cc3ccccc3[nH]c1=O)Nc1cc(C(=O)OCc3ccccc3)ccc1N2 (centres undefined); inactive
